biological target: T1, human programmed cell death protein 1 (hPD-1) C93S (aa 24-167) (Homo sapiens, UniProt Q15116, C93S); test: SPR; Carterra LSA; Fab from the ammonium sulfate precipitate of the culture supernatant immobilised on a NiHC200M chip; hPD-1 (1-1024 nM) or mPD-1-Fc (4-1024 nM) as analyte, fourfold dilution series, no regeneration; HBS-EP pH 7.4, 25 °C; medians over the spots of a construct, KD = koff/kon; details: one partner purified
T1 construct: made as a fusion with a TEV site and human Fc; the Fc was cut off with TEV protease; source: Expi293F, purified (Protein A, TEV cleavage of Fc, SEC; monomer fractions); not shown: Fc (human), C-terminal, cleaved
T1 sequence (Q15116 24-167 C93S): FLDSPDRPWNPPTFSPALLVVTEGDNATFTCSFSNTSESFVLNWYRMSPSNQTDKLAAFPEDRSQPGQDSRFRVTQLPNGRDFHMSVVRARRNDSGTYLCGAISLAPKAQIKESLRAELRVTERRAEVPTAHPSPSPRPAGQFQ

binder	Kd
toripalimab Fab H.K65Y (Fab, V domains shown, heavy chain of Sm3 with this change; numbers count from the chain's first residue; as the light chain of Sm3; source: Brevibacillus, culture supernatant (ammonium sulfate precipitate); not shown: 6xHis, C-terminal, kept; 6xHN, C-terminal, kept) VH: QGQLVQSGAEVKKPGASVKVSCKASGYTFTDYEMHWVRQAPIHGLEWIGVIESETGGTAYNQKFYGRVTITADKSTSTAYMELSSLRSEDTAVYYCAREGITTVATTYYWYFDVWGQGTTVTVSS VL: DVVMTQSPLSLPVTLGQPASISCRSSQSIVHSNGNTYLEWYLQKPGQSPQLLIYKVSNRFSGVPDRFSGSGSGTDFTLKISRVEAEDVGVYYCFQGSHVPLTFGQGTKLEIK	1.14 nM
toripalimab Fab H.D31A (Fab, V domains shown, heavy chain of Sm3 with this change; numbers count from the chain's first residue; as the light chain of Sm3; source: Brevibacillus, culture supernatant (ammonium sulfate precipitate); not shown: 6xHis, C-terminal, kept; 6xHN, C-terminal, kept) VH: QGQLVQSGAEVKKPGASVKVSCKASGYTFTAYEMHWVRQAPIHGLEWIGVIESETGGTAYNQKFKGRVTITADKSTSTAYMELSSLRSEDTAVYYCAREGITTVATTYYWYFDVWGQGTTVTVSS VL: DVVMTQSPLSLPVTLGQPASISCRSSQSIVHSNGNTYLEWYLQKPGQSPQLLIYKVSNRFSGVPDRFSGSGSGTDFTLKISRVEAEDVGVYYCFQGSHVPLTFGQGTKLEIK	< 0.861 nM
toripalimab Fab H.Y109A (Fab, V domains shown, heavy chain of Sm3 with this change; numbers count from the chain's first residue; as the light chain of Sm3; source: Brevibacillus, culture supernatant (ammonium sulfate precipitate); not shown: 6xHis, C-terminal, kept; 6xHN, C-terminal, kept) VH: QGQLVQSGAEVKKPGASVKVSCKASGYTFTDYEMHWVRQAPIHGLEWIGVIESETGGTAYNQKFKGRVTITADKSTSTAYMELSSLRSEDTAVYYCAREGITTVATTYAWYFDVWGQGTTVTVSS VL: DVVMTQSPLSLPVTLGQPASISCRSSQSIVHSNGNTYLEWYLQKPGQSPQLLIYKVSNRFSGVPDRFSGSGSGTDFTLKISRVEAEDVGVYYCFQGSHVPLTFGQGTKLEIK	0.608 nM
toripalimab Fab H.V104Y (Fab, V domains shown, heavy chain of Sm3 with this change; numbers count from the chain's first residue; as the light chain of Sm3; source: Brevibacillus, culture supernatant (ammonium sulfate precipitate); not shown: 6xHis, C-terminal, kept; 6xHN, C-terminal, kept) VH: QGQLVQSGAEVKKPGASVKVSCKASGYTFTDYEMHWVRQAPIHGLEWIGVIESETGGTAYNQKFKGRVTITADKSTSTAYMELSSLRSEDTAVYYCAREGITTYATTYYWYFDVWGQGTTVTVSS VL: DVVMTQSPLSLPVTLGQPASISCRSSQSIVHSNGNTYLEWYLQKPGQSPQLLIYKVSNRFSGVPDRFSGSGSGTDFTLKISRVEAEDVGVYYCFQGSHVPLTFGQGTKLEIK	1.17 nM
toripalimab Fab L.Y37A (Fab, V domains shown, as the heavy chain of Sm3; light chain of Sm3 with this change; numbers count from the chain's first residue; source: Brevibacillus, culture supernatant (ammonium sulfate precipitate); not shown: 6xHis, C-terminal, kept; 6xHN, C-terminal, kept) VH: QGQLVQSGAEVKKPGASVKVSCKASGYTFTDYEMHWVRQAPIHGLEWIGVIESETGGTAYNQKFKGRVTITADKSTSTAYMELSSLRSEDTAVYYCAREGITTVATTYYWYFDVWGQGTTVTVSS VL: DVVMTQSPLSLPVTLGQPASISCRSSQSIVHSNGNTALEWYLQKPGQSPQLLIYKVSNRFSGVPDRFSGSGSGTDFTLKISRVEAEDVGVYYCFQGSHVPLTFGQGTKLEIK	237 nM
